Test: Inhibition of mouse brain monoamine oxidase
assayEndpoint: IC50

Please review the following examples before continuing.
• C=C(C)[C@H](O)CC/C(C)=C/COc1ccc2ccc(=O)oc2c1 = 0.7 µM
• CC(C)=CCC/C(C)=C/COc1ccc2ccc(=O)oc2c1 = 1.7 µM
• C/C=C(/C)C(=O)O[C@H]1[C@@H](OC(C)=O)c2c(ccc3ccc(=O)oc23)OC1(C)C = 27.4 µM

Exam item: Give the value of IC50 reported for the following: `COc1c2ccoc2cc2oc(=O)ccc12`
Marked response: 13.8 µM

Exam item: Give the value of IC50 reported for the following: `O=c1ccc2cc3ccoc3cc2o1`
Marked response: 35.8 µM

Exam item: Give the value of IC50 reported for the following: `COc1c(OCC=C(C)C)ccc2ccc(=O)oc12`
Marked response: 9.2 µM
